Tested on: normal human peripheral blood mononuclear cells (PBMCs)
measurementProtocol: MTT cytotoxicity assay, normal PBMCs
Type: cell-based
conditionContext: PBMCs vs CCRF-CEM
reportedEndpoint: SI, Selectivity index, IC50(PBMCs)/IC50(CCRF-CEM)

compound | result
CON=C1C(=O)N(CCC(=O)OC2O[C@@H]3O[C@@]4(C)CC[C@H]5[C@H](C)CC[C@@H]([C@H]2C)[C@@]35OO4)c2ccccc21 (some centres unmarked) | >6.59
CCON=C1C(=O)N(CCC(=O)OC2O[C@@H]3O[C@@]4(C)CC[C@H]5[C@H](C)CC[C@@H]([C@H]2C)[C@@]35OO4)c2ccccc21 (some centres unmarked) | >10.91
CON=C1C(=O)N(CCC(=O)OC2O[C@@H]3O[C@@]4(C)CC[C@H]5[C@H](C)CC[C@@H]([C@H]2C)[C@@]35OO4)c2ccc(OC)cc21 (some centres unmarked) | >14.83
CON=C1C(=O)N(CC(=O)OC2O[C@@H]3O[C@@]4(C)CC[C@H]5[C@H](C)CC[C@@H]([C@H]2C)[C@@]35OO4)c2ccccc21 (some centres unmarked) | >26.10
COc1cccc2c1C(=O)c1c(O)c3c(c(O)c1C2=O)C[C@@](O)(C(=O)CO)C[C@@H]3O[C@H]1C[C@H](N)[C@H](O)[C@H](C)O1 [Adriamycin, reference compound] | 4690
CON=C1C(=O)N(CCCC(=O)OC2O[C@@H]3O[C@@]4(C)CC[C@H]5[C@H](C)CC[C@@H]([C@H]2C)[C@@]35OO4)c2ccc(OC)cc21 (some centres unmarked) | >26.17
CON=C1C(=O)N(CCCC(=O)OC2O[C@@H]3O[C@@]4(C)CC[C@H]5[C@H](C)CC[C@@H]([C@H]2C)[C@@]35OO4)c2ccc(F)cc21 (some centres unmarked) | >5.36
C[C@@H]1CC[C@H]2[C@@H](C)C(OC(=O)CCCN3C(=O)C(=NOCc4ccccc4)c4cc(F)ccc43)O[C@@H]3O[C@@]4(C)CC[C@@H]1[C@]32OO4 (some centres unmarked) | >10.85
COc1ccc2c(c1)C(=NOCc1ccccc1)C(=O)N2CCCC(=O)OC1O[C@@H]2O[C@@]3(C)CC[C@H]4[C@H](C)CC[C@@H]([C@H]1C)[C@@]24OO3 (some centres unmarked) | >40.81
CON=C1C(=O)N(CCCC(=O)OC2O[C@@H]3O[C@@]4(C)CC[C@H]5[C@H](C)CC[C@@H]([C@H]2C)[C@@]35OO4)c2ccccc21 (some centres unmarked) | >35.97
CCON=C1C(=O)N(CCCC(=O)OC2O[C@@H]3O[C@@]4(C)CC[C@H]5[C@H](C)CC[C@@H]([C@H]2C)[C@@]35OO4)c2ccc(OC)cc21 (some centres unmarked) | >52.63
CCON=C1C(=O)N(CCC(=O)OC2O[C@@H]3O[C@@]4(C)CC[C@H]5[C@H](C)CC[C@@H]([C@H]2C)[C@@]35OO4)c2ccc(OC)cc21 (some centres unmarked) | >5.16
CON=C1C(=O)N(CCC(=O)OC2O[C@@H]3O[C@@]4(C)CC[C@H]5[C@H](C)CC[C@@H]([C@H]2C)[C@@]35OO4)c2ccc(F)cc21 (some centres unmarked) | >76.33
CCON=C1C(=O)N(CCCC(=O)OC2O[C@@H]3O[C@@]4(C)CC[C@H]5[C@H](C)CC[C@@H]([C@H]2C)[C@@]35OO4)c2ccc(F)cc21 (some centres unmarked) | >7.85

* * *

Documented IC50 across a set of compounds
System: K562/ADR human myeloid leukemia cell line
measurementProtocol: MTT antiproliferative assay, K562/ADR
Format: cell-based

compound | IC50
C[C@@H]1CC[C@H]2[C@@H](C)C(=O)O[C@@H]3O[C@@]4(C)CC[C@@H]1[C@]32OO4 | > 100 µM
CON=C1C(=O)N(CCCC(=O)OC2O[C@@H]3O[C@@]4(C)CC[C@H]5[C@H](C)CC[C@@H]([C@H]2C)[C@@]35OO4)c2ccccc21 (stereo partly drawn) | > 100 µM
COc1ccc2c(c1)C(=NOCc1ccccc1)C(=O)N2CCCC(=O)OC1O[C@@H]2O[C@@]3(C)CC[C@H]4[C@H](C)CC[C@@H]([C@H]1C)[C@@]24OO3 (stereo partly drawn) | > 100 µM
O=C(CCCCCCC(=O)Nc1ccccc1)NO [Vorinostat, reference compound] | 2.18 µM
C[C@@H]1CC[C@H]2[C@@H](C)C(OC(=O)CCN3C(=O)C(=NOCc4ccccc4)c4cc(F)ccc43)O[C@@H]3O[C@@]4(C)CC[C@@H]1[C@]32OO4 (stereo partly drawn) | 3.83 µM
CON=C1C(=O)N(CCCC(=O)OC2O[C@@H]3O[C@@]4(C)CC[C@H]5[C@H](C)CC[C@@H]([C@H]2C)[C@@]35OO4)c2ccc(F)cc21 (stereo partly drawn) | > 100 µM

* * *

System: K562/ADR human myeloid leukemia cell line
measurementProtocol: MTT antiproliferative assay, K562/ADR
Assay type: cell-based
Measured IC50, listed per entry.

compound | IC50
CON=C1C(=O)N(CCC(=O)OC2O[C@@H]3O[C@@]4(C)CC[C@H]5[C@H](C)CC[C@@H]([C@H]2C)[C@@]35OO4)c2ccccc21 (stereo partly drawn) [hybrid 7e] | 22.7 µM
CCON=C1C(=O)N(CCC(=O)OC2O[C@@H]3O[C@@]4(C)CC[C@H]5[C@H](C)CC[C@@H]([C@H]2C)[C@@]35OO4)c2ccccc21 (stereo partly drawn) [hybrid 7f] | > 100 µM
C[C@@H]1CC[C@H]2[C@@H](C)C(OC(=O)CCN3C(=O)C(=NOCc4ccccc4)c4ccccc43)O[C@@H]3O[C@@]4(C)CC[C@@H]1[C@]32OO4 (stereo partly drawn) [hybrid 7g] | > 100 µM
CCON=C1C(=O)N(CCCC(=O)OC2O[C@@H]3O[C@@]4(C)CC[C@H]5[C@H](C)CC[C@@H]([C@H]2C)[C@@]35OO4)c2ccc(OC)cc21 (stereo partly drawn) [hybrid 7t] | > 100 µM
C[C@@H]1CC[C@H]2[C@@H](C)C(OC(=O)CCCN3C(=O)C(=NOCc4ccccc4)c4ccccc43)O[C@@H]3O[C@@]4(C)CC[C@@H]1[C@]32OO4 (stereo partly drawn) [hybrid 7o] | > 100 µM
C[C@@H]1CC[C@H]2[C@@H](C)C(OC(=O)CCCN3C(=O)C(=NOCc4ccccc4)c4cc(F)ccc43)O[C@@H]3O[C@@]4(C)CC[C@@H]1[C@]32OO4 (stereo partly drawn) [hybrid 7r] | > 100 µM

* * *

System: K562 human myeloid leukemia cell line
measurementProtocol: MTT antiproliferative assay, K562
Type: cell-based
reportedEndpoint: IC50

compound | testSystem | result
CCON=C1C(=O)N(CCCC(=O)OC2O[C@@H]3O[C@@]4(C)CC[C@H]5[C@H](C)CC[C@@H]([C@H]2C)[C@@]35OO4)c2ccc(OC)cc21 (some centres unmarked) [hybrid 7t] | K562 human myeloid leukemia cell line | > 100 µM
CCON=C1C(=O)N(CCCC(=O)OC2O[C@@H]3O[C@@]4(C)CC[C@H]5[C@H](C)CC[C@@H]([C@H]2C)[C@@]35OO4)c2ccc(F)cc21 (some centres unmarked) [hybrid 7q] | K562 human myeloid leukemia cell line | 16 µM
CCON=C1C(=O)N(CCCC(=O)OC2O[C@@H]3O[C@@]4(C)CC[C@H]5[C@H](C)CC[C@@H]([C@H]2C)[C@@]35OO4)c2ccccc21 (some centres unmarked) [hybrid 7n] | K562 human myeloid leukemia cell line | > 100 µM
COc1ccc2c(c1)C(=NOCc1ccccc1)C(=O)N2CCCC(=O)OC1O[C@@H]2O[C@@]3(C)CC[C@H]4[C@H](C)CC[C@@H]([C@H]1C)[C@@]24OO3 (some centres unmarked) [hybrid 7u] | K562 human myeloid leukemia cell line | > 100 µM
CON=C1C(=O)N(CCC(=O)OC2O[C@@H]3O[C@@]4(C)CC[C@H]5[C@H](C)CC[C@@H]([C@H]2C)[C@@]35OO4)c2ccccc21 (some centres unmarked) [hybrid 7e] | K562 human myeloid leukemia cell line | 3.78 µM
CON=C1C(=O)N(CCCC(=O)OC2O[C@@H]3O[C@@]4(C)CC[C@H]5[C@H](C)CC[C@@H]([C@H]2C)[C@@]35OO4)c2ccc(F)cc21 (some centres unmarked) [hybrid 7p] | K562 human myeloid leukemia cell line | 49.8 µM
C[C@@H]1CC[C@H]2[C@@H](C)C(OC(=O)CCN3C(=O)C(=NOCc4ccccc4)c4ccccc43)O[C@@H]3O[C@@]4(C)CC[C@@H]1[C@]32OO4 (some centres unmarked) [hybrid 7g] | K562 human myeloid leukemia cell line | > 100 µM
C[C@@H]1CC[C@H]2[C@@H](C)C(OC(=O)CCCN3C(=O)C(=NOCc4ccccc4)c4ccccc43)O[C@@H]3O[C@@]4(C)CC[C@@H]1[C@]32OO4 (some centres unmarked) [hybrid 7o] | K562 human myeloid leukemia cell line | > 100 µM
CCON=C1C(=O)N(CCC(=O)OC2O[C@@H]3O[C@@]4(C)CC[C@H]5[C@H](C)CC[C@@H]([C@H]2C)[C@@]35OO4)c2ccccc21 (some centres unmarked) [hybrid 7f] | K562 human myeloid leukemia cell line | 5.7 µM
CON=C1C(=O)N(CCCC(=O)OC2O[C@@H]3O[C@@]4(C)CC[C@H]5[C@H](C)CC[C@@H]([C@H]2C)[C@@]35OO4)c2ccccc21 (some centres unmarked) [hybrid 7m] | K562 human myeloid leukemia cell line | > 100 µM
C[C@@H]1CC[C@H]2[C@@H](C)C(OC(=O)CN3C(=O)C(=NOCc4ccccc4)c4ccccc43)O[C@@H]3O[C@@]4(C)CC[C@@H]1[C@]32OO4 (some centres unmarked) [hybrid 7b] | K562 human myeloid leukemia cell line | > 100 µM
